Every entry's value here was drawn from patent US20130071854A1.

Each item that follows carries a reported pKd.
test system: NuRD complex; experiment: Chemoproteomic binding profiling, K562 cell extract, SAHA/ITF2357 probe matrix (Kd app); set-up: species or system human; details: protein CHD4; NuRD complex; read-out: Kd^app CHD4
pKd: −log10 of the molar value.
TEST_READOUT: pKd

>>> endpoint_result("CN(C)Cc1c(C(=O)NCCOc2ccc(C(=O)NO)cc2)oc2ccccc12")
6.80
>>> endpoint_result("Nc1ccccc1NC(=O)CCCCCCC(=O)Nc1ccccc1")
4.52
>>> endpoint_result("CCCCOc1ccc(CC(=O)NO)cc1")
3.41
>>> endpoint_result("CCCC(CCC)C(=O)O [valproate, valproic acid]")
3.26

* * *

target: PTER (Homo sapiens); construct: endogenous in cells; assay: Competition binding assay in cell lysate, affinity matrix, MS; conditions: IC50, PTER; mix of Jurkat and Ramos cell lysates
Sequence (Q96BW5 whole entry): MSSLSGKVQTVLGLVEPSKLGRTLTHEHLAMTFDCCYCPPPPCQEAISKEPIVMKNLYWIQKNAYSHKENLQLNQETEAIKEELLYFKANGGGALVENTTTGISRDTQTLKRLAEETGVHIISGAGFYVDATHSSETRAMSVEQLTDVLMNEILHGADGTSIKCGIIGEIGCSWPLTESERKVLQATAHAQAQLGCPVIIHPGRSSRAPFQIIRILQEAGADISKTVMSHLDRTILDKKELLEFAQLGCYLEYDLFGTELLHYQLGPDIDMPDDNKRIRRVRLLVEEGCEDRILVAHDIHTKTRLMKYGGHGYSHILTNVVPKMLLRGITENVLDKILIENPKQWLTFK
pIC50: −log10 of the molar value.
TEST_READOUT: pIC50

>>> endpoint_result("O=C(CCCCCCC(=O)Nc1ccccc1)NO [SAHA, suberoylanilide hydroxamic acid]")
5.00

* * *

target: HDAC6 (Homo sapiens); test: Chemoproteomic binding profiling, K562 cell extract, SAHA/ITF2357 probe matrix (Kd app); parameters: used to probe endogenous HDACs in K562 whole cell extracts; endogenous in cells
Sequence (Q9UBN7 whole entry): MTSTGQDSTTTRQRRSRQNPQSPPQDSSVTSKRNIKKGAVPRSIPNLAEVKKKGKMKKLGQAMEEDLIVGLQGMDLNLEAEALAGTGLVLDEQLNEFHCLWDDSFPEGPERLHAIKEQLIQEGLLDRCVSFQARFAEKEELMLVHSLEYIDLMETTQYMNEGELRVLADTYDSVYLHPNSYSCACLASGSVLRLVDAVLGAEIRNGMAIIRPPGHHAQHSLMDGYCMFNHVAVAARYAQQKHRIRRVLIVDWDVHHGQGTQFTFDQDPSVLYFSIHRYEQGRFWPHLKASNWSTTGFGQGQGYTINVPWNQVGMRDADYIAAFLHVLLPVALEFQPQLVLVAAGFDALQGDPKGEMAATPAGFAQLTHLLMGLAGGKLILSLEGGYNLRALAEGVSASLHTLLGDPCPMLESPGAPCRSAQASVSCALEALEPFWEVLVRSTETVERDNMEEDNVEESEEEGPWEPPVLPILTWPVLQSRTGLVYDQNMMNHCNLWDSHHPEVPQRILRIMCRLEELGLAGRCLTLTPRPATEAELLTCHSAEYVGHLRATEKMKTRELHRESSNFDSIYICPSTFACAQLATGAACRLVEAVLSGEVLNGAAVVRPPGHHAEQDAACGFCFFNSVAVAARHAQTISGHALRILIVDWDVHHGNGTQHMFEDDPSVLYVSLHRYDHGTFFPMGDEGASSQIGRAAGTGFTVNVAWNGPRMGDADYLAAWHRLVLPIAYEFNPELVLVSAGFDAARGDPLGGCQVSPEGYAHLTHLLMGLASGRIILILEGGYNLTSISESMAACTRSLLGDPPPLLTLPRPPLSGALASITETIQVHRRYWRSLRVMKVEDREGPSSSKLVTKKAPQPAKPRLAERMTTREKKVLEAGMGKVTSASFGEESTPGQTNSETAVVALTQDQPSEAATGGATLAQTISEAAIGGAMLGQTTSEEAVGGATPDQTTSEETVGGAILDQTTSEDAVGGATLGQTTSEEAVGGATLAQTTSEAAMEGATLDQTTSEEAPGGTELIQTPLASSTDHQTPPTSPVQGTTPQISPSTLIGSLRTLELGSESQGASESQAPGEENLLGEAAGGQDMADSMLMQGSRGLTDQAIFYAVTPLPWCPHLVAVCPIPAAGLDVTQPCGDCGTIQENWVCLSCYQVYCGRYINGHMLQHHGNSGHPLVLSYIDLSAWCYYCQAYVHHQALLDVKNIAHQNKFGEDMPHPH
pKd: −log10 of the molar value.
TEST_READOUT: pKd

>>> endpoint_result("O=C(/C=C/c1cccc(S(=O)(=O)Nc2ccccc2)c1)NO")
6.39

* * *

// pKd lookup, one value per entry
Target: non-HDAC targets (e.g. BZW2, ISOC2, aldehyde dehydrogenases) (Homo sapiens, UniProt Q96AB3)
Construct: endogenous in cells
Sequence (Q96AB3 1-205): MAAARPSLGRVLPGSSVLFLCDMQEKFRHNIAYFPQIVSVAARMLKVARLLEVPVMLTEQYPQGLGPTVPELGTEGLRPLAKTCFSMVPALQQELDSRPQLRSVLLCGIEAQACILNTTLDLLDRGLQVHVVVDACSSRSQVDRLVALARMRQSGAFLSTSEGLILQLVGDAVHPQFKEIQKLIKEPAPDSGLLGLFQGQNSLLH
Test: Chemoproteomic binding profiling, K562 cell extract, SAHA/ITF2357 probe matrix (Kd app)
Conditions: protein ISOC2; selected HDACi off-targets
pKd: −log10 of the molar value.
TEST_READOUT: pKd

>>> endpoint_result("Nc1ccccc1NC(=O)CCCCCCC(=O)Nc1ccccc1")
"< 4.07"
>>> endpoint_result("Cn1cc(C(=O)Cc2ccccc2)cc1C=CC(=O)NO")
5.30
>>> endpoint_result("COc1ccc(Cn2ccc3ccc(C(=O)NO)cc32)cc1")
"< 4.22"
>>> endpoint_result("O=C(/C=C/c1cccc(S(=O)(=O)Nc2ccccc2)c1)NO")
"< 5.00"
>>> endpoint_result("O=C(/C=C/c1ccc(CN(CCO)CCc2c[nH]c3ccccc23)cc1)NO")
"< 5.00"
>>> endpoint_result("O=C(CCCCCN1C(=O)c2cccc3cccc(c23)C1=O)NO")
6.46
>>> endpoint_result("CCCCOc1ccc(CC(=O)NO)cc1")
5.52
>>> endpoint_result("CN(C)Cc1c(C(=O)NCCOc2ccc(C(=O)NO)cc2)oc2ccccc12")
"< 5.00"
>>> endpoint_result("Cc1[nH]c2ccccc2c1CCNCc1ccc(/C=C/C(=O)NO)cc1")
"< 5.00"
>>> endpoint_result("Nc1ccccc1NC(=O)c1ccc(CNC(=O)OCc2cccnc2)cc1")
"< 3.52"
>>> endpoint_result("Nc1ccccc1NC(=O)c1ccc(CNc2nccc(-c3cccnc3)n2)cc1")
"< 3.57"
>>> endpoint_result("CCCC(CCC)C(=O)O [valproate, valproic acid]")
"< 5.00"
>>> endpoint_result("CC(=O)Nc1ccc(C(=O)Nc2ccccc2N)cc1")
"< 4.07"
